// reported melting point for each item listed

Here's what some known entries look like.
>>> df
                                   compound      parameter  value_observed
0  CCOC(=O)c1c(-c2ccccc2C)c2cc(C)c(Cl)cc2n(C)c1=O  melting point   121 to 123 °C
1  Cc1cc(-c2ccc(C(F)(F)F)cc2)cc(-c2cccc(-c3cccc(N)c3)n2)n1  melting point          167 °C
2  C=CCOc1ccccc1OCCNCC(O)COc1cccc2c1CC(=O)N2 (configuration not stated)  melting point   148 to 149 °C
3  Cc1noc(NS(=O)(=O)c2ccccc2-c2ccc(-c3cocn3)cc2)c1C  melting point     85 to 93 °C
4  CC(CNC(=O)[C@@H]1CSC(=O)N1)O[N+](=O)[O-] (some centres not stated)  melting point     70 to 72 °C

// moving on: another record for melting point
[Q] Record request: melting point value, item CCN1C=C(C(=O)O)C(=O)CC1c1cccnc1 (configuration not stated)
[A] 197 to 199 °C
